Taken from PubChem BioAssay (NCATS).

# test details: Quantitative High-Throughput drug screen in 47 multiple myeloma cell lines against the NCATS MIPE library collection: Karpas25_ECACC cell viability assay (AID 1918968; further: nearly all actives have a fitted effect of over 35% in size)
# applied conditions: Karpas25 myeloma viability, CellTiter-Glo ATP, 48 h; series mostly up to 45.8 µM
Records with an inconclusive call do not appear. Activity calls are given as the source filed them. The call rests on the fitted dose curve; in most records, active means well fitted cell-killing curve with a large enough effect; inconclusive means small, poorly fitted or top-dose-only effect, or effect the other way; inactive means no such curve, though single readings can be large or run the other way.
Choose the fitting class; nothing outside true = active, false = inactive is accepted.

# compound, label value
records = [
    ("O=C(CCCCCCC(=O)Nc1ccccc1)NO", "true"),
]

For NS(=O)(=O)c1cccc2c1C(=O)c1cccc(O)c1C2=O , what call appears in the results of this test?
true

Hi team, can someone confirm the assay call for CN1CCN(CCOc2cc(OC3CCOCC3)c3c(Nc4c(Cl)ccc5c4OCO5)ncnc3c2)CC1 ?
true

Each compound tested received a call. Report the one for Cn1c(N2CCCCS2(=O)=O)nc(C(=O)NCc2ccc(F)cc2)c(O)c1=O .
true

What was the test verdict on O=C(NCc1ccncc1)C12C[C@H]3C[C@@H](C1)CC(c1ccc(Cl)cc1)(C3)C2 ?
true

What outcome does the record of this test show for COc1cc(O)c2c(c1)C(=O)c1cc(C)cc(O)c1C2=O ?
false

What did the test return for O=c1cc(-c2cccc3c2Sc2ccccc2S3)oc(N2CCOCC2)c1 ?
true

Answer briefly: the call reported for CO[C@H]1C(=O)[C@]2(C)[C@@H](OC)C[C@H]3OC[C@@]3(OC(C)=O)[C@H]2[C@H](OC(=O)c2ccccc2)[C@]2(O)C[C@H](OC(=O)[C@H](O)[C@@H](NC(=O)OC(C)(C)C)c3ccccc3)C(C)=C1C2(C)C in this assay.
false

What did the test return for CC(C)C(C)C=CC(C)C1CCC2C3=CC=C4CC(O)CCC4(C)C3CCC21C (centres undefined) ?
false

----------
# test details: qHTS to identify inhibitors of the type 1 interferon - major histocompatibility complex class I in skeletal muscle: primary screen against the NCATS LOPAC collection (AID 1347405);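 further: human myoblasts with HiBiT tag on endogenous HLA-B stimulated by IFN-beta; lytic HiBiT luminescence reporting HLA-B protein level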
# applied conditions: iHSKM muscle cells, IFN-b-induced MHC-I HiBiT luminescence, 24 h; series mostly up to 45.9 µM
# Text: Assay Submitter (PI): Travis B. Kinder Ph.D. & James Inglese Ph.D. Assay Development and Screening Technology Laboratory (ADST) National Center for Advancing Translational Sciences (NCATS), Rockville, MD National Institute of Health (NIH), Bethesda, Maryland […]
Results filed as inconclusive are left out. Activity calls are given as the source filed them. The call rests on the fitted dose curve; in most records, active means well fitted inhibition curve with a large enough effect; inconclusive means small, poorly fitted or top-dose-only effect; inactive means flat fitted curve, though single readings scatter.
assay endpoint: outcome

Worked examples follow.
# compound, val
measured = [
    ("COc1cccc(-c2cc(=O)c3ccccc3o2)c1N", "inactive"),
    ("CC(=O)O[C@]1(C(C)=O)CC[C@H]2[C@@H]3C=C(Cl)C4=CC(=O)[C@@H]5C[C@@H]5[C@]4(C)[C@H]3CC[C@@]21C", "inactive"),
    ("CN(C)CCC(c1ccccc1)c1ccccn1 (centres undefined)", "inactive"),
    ("O=C1NCC2(CCN(CCc3ccccc3)CC2)O1", "inactive"),
    ("C[N+](C)(C)CCCCCC[N+](C)(C)C", "inactive"),
]

# lookup: outcome of CCN(CC)C(=O)c1ccc(O)c(OC)c1
inactive

----------
# test details: qHTS Assay for Identification of Small Molecule Antagonists for NFkB Signaling Pathway. (AID 624479);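 further: pathway stimulated with TNF alpha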
# applied conditions: NFkB pathway reporter cell assay, antagonist mode; series mostly up to 38.3 µM
Calls of active or inactive are those of the source. The call rests on the fitted dose curve.
I would appreciate it if you answered using one of these outcomes: class 1 (active), class 0 (inactive)

Recorded results for 10 compounds are shown here.
# compound, label value
data = [
    ("Cc1ccc(F)c(NC(=O)Nc2ccc(-c3cccc4[nH]nc(N)c34)cc2)c1", "class 1"),
    ("CC(C)(C)C(=O)Oc1ccc2c(c1)nc(NC(=O)c1cccc([N+](=O)[O-])c1)n2CCCO", "class 1"),
    ("N#Cc1ccc(NC(=O)Nc2ccccc2Br)c2n[nH]nc12", "class 0"),
    ("COc1ccc(C2CC(c3ccccc3)=NN2c2ccc(S(N)(=O)=O)cc2)cc1 (stereo not given)", "class 0"),
    ("O=c1cc(N2CCOCC2)oc2c(-c3cccc4c3sc3ccccc34)cccc12", "class 1"),
    ("O=C(N[C@@H](c1ccccc1)[C@@H]1CCCCN1)c1cccc(C(F)(F)F)c1Cl", "class 0"),
    ("COc1ncc(-c2ccc3nccc(-c4ccnnc4)c3c2)cc1NS(=O)(=O)c1ccc(F)cc1F", "class 1"),
    ("CC1=C(/C=C/C(C)=C/C=C/C(C)=C/C(=O)Nc2ccc(O)cc2)C(C)(C)CCC1", "class 1"),
    ("CC(=O)Nc1ccc([C@H](C)C(=O)Nc2ncc(C(C)C)s2)cc1", "class 1"),
    ("CC(C)(C(=O)NCC(F)(F)C(F)(F)F)C(=O)N[C@@H]1C(=O)Nc2ccccc2-c2ccccc21", "class 0"),
]

Query: recorded result category for O=C(O)CCC1CCC(c2cc(F)ccc2F)(S(=O)(=O)c2ccc(Cl)cc2)CC1 (stereo not given) in this test
class 0

// return assay outcome for CS(=O)c1ccc(-c2nc(-c3ccc(F)cc3)c(-c3ccncc3)[nH]2)cc1 (stereo not given)
class 0

Hi team, can someone confirm the assay call for CC(C)(C)c1cc(C(=O)O)c(NC(=O)Nc2ccc3[nH]ncc3c2)s1 ?
class 0

For this compound, state the assay outcome: CCOC(CN1C(=O)[C@](CC(=O)Nc2ccc(C)cc2)(NC(=O)Nc2ccc(C)cc2)c2ccccc21)OCC
class 1

Hello, I am checking results. What call was entered for COc1cc(N2CCC(N3CCN(C)CC3)CC2)ccc1Nc1ncc(Cl)c(Nc2ccccc2S(=O)(=O)C(C)C)n1 ?
class 1

Per the assay record, what outcome was assigned to O=C(Nc1cc(Cl)cc2c1[nH]c1cnccc12)c1cccnc1 ?
class 1
